Tested on: HepG2
Test: Cytotoxicity in human HepG2 cells assessed as reduction in cell viability by MTT assay
Type: functional, cell-based
pIC50: recorded values
Keep in mind that pIC50 stands for -log10 of concentration in molar terms.

1. O=c1[nH]cc(F)c(=O)[nH]1 4.21

Quick note, pIC50 for CCOC(=O)c1c(NCc2nc3ccccc3[nH]2)sc2c1CCCCC2 landed at 4.37

Quick note, pIC50 for NS(=O)(=O)c1nnc(NCc2nc3ccccc3[nH]2)s1 landed at 3.79

Quick note, pIC50 for O=[N+]([O-])c1ccc2[nH]c(CN3CCN(c4ccc(F)cc4)CC3)nc2c1 landed at 4.66

Quick note, pIC50 for COc1ccc2c(c1)CCC/C2=N\NCc1nc2cc([N+](=O)[O-])ccc2[nH]1 landed at 4.02

Quick note, pIC50 for O=[N+]([O-])c1ccc2[nH]c(CNc3nc(-c4ccccc4)cs3)nc2c1 landed at 3.65

---

Tested on: Calf thymus DNA
Assay: Binding affinity to calf thymus DNA by TLC plate based assay
Type: nucleic-acid assay
Details: Bos taurus
Activity calls are given as the source filed them. No cut-off for these calls is given here.
# output must be one of active, inactive

Worked examples follow.
1) Cc1c(NCc2nc3ccccc3[nH]2)c(=O)n(-c2ccccc2)n1C active
2) NS(=O)(=O)c1nnc(NCc2nc3ccccc3[nH]2)s1 active
3) O=[N+]([O-])c1ccc2ncccc2c1NCc1nc2ccccc2[nH]1 active
4) O=[N+]([O-])c1ccc2[nH]c(CNc3c([N+](=O)[O-])ccc4ncccc34)nc2c1 active
5) CC1=NN(Cc2nc3ccccc3[nH]2)C(=O)C1 active
6) CCOC(=O)c1c(NCc2nc3ccccc3[nH]2)sc2c1CCCCC2 inactive

In: Just curious, what result did CC[n+]1c(-c2ccccc2)c2cc(N)ccc2c2ccc(N)cc21 get here?
Out: active

In: Just curious, what result did Fc1ccc2nc(NCc3nc4ccccc4[nH]3)sc2c1 get here?
Out: active

In: Just curious, what result did O=[N+]([O-])c1ccc2[nH]c(CN3CCN(c4ccc(F)cc4)CC3)nc2c1 get here?
Out: active

In: Just curious, what result did O=C1c2ccccc2C(=O)N1NCc1nc2ccccc2[nH]1 get here?
Out: active

---

Test system: WI-38
Test: Cytotoxicity in human WI38 cells assessed as reduction in cell viability by MTT assay
Assay type: cell-based
IC50: recorded values
API: value field is a number in µM; no unit string.

1. O=c1[nH]cc(F)c(=O)[nH]1 51
2. O=[N+]([O-])c1ccc2[nH]c(CN3CCN(c4ccc(F)cc4)CC3)nc2c1 298
3. CC1=NN(Cc2nc3ccccc3[nH]2)C(=O)C1 246
4. O=C1c2ccccc2C(=O)N1NCc1nc2ccccc2[nH]1 322

Quick note, IC50 for CCOC(=O)c1c(NCc2nc3ccccc3[nH]2)sc2c1CCCCC2 landed at 58

---

System: HCT-116
Assay: Cytotoxicity in human HCT116 cells assessed as reduction in cell viability by MTT assay
Format: functional, cell-based
Define the label as true (1) when IC50 is strictly less than 200 µM and as false (0) in all remaining cases.

In: Please let me know if O=[N+]([O-])c1ccc2[nH]c(CNc3c([N+](=O)[O-])ccc4ncccc34)nc2c1 shows IC50 below 200 µM.
Out: false (0)

In: Please let me know if NS(=O)(=O)c1nnc(NCc2nc3ccccc3[nH]2)s1 shows IC50 below 200 µM.
Out: true (1)

In: Please let me know if CCOC(=O)c1c(NCc2nc3ccccc3[nH]2)sc2c1CCCCC2 shows IC50 below 200 µM.
Out: true (1)

In: Please let me know if O=[N+]([O-])c1ccc2[nH]c(CNc3nc4ccc(F)cc4s3)nc2c1 shows IC50 below 200 µM.
Out: false (0)

In: Please let me know if Fc1ccc2nc(NCc3nc4ccccc4[nH]3)sc2c1 shows IC50 below 200 µM.
Out: false (0)

In: Please let me know if O=C1c2ccccc2C(=O)N1NCc1nc2ccccc2[nH]1 shows IC50 below 200 µM.
Out: true (1)

In: Please let me know if O=[N+]([O-])c1ccc2[nH]c(CN3CCN(c4ccc(F)cc4)CC3)nc2c1 shows IC50 below 200 µM.
Out: true (1)

---

System: Ehrlich
Assay: Antitumor activity against mouse EAC cells implanted in Swiss mouse assessed as tumor volume at 0.5 mg/mouse dosed for 9 days starting 1 day after tumor cell implantation (reference value: 9.85 ml)
Format: functional
We use 2 mL as the dividing line for Activity: on or above the line is True, below is False.

Worked examples follow.
Compound	Class Label
O=C1c2ccccc2C(=O)N1NCc1nc2ccccc2[nH]1	True
CCOC(=O)c1c(NCc2nc3ccccc3[nH]2)sc2c1CCCCC2	True
CC1=NN(Cc2nc3ccccc3[nH]2)C(=O)C1	True
O=c1[nH]cc(F)c(=O)[nH]1 [FLUOROURACIL]	False

Turning to the following compound.
In: Form field: Activity at least 2 mL? Entry: O=[N+]([O-])c1ccc2[nH]c(CN3CCN(c4ccc(F)cc4)CC3)nc2c1
Out: True

---

Tested on: HCT-116
Experiment: Cytotoxicity in human HCT116 cells assessed as reduction in cell viability by MTT assay
Assay type: functional, cell-based
pIC50: recorded values
Keep in mind that pIC50 stands for -log10 of concentration in molar terms.

# count of solved cases: 4
Molecule	Target System	pIC50
O=[N+]([O-])c1ccc2[nH]c(CNc3nc(-c4ccccc4)cs3)nc2c1	HCT-116	3.70
COc1ccc2c(c1)CCC/C2=N\NCc1nc2ccccc2[nH]1	HCT-116	4.39
Cc1c(NCc2nc3cc([N+](=O)[O-])ccc3[nH]2)c(=O)n(-c2ccccc2)n1C	HCT-116	4.36
O=c1[nH]cc(F)c(=O)[nH]1 [FLUOROURACIL]	HCT-116	4.39

Quick note, pIC50 for NS(=O)(=O)c1nnc(NCc2nc3cc([N+](=O)[O-])ccc3[nH]2)s1 landed at 3.75

Quick note, pIC50 for CC1=NN(Cc2nc3cc([N+](=O)[O-])ccc3[nH]2)C(=O)C1 landed at 3.70

Quick note, pIC50 for COc1ccc2c(c1)CCC/C2=N\NCc1nc2cc([N+](=O)[O-])ccc2[nH]1 landed at 4.35

Quick note, pIC50 for Cc1c(NCc2nc3ccccc3[nH]2)c(=O)n(-c2ccccc2)n1C landed at 4.42

Quick note, pIC50 for O=[N+]([O-])c1ccc2ncccc2c1NCc1nc2ccccc2[nH]1 landed at 3.69

Quick note, pIC50 for CC1=NN(Cc2nc3ccccc3[nH]2)C(=O)C1 landed at 4.38
